Kindly state GR80, APESV for each of the entries shown.
Test system: APESV (windgrass)
Assay: Post-Emergent Test III (Wheat and Barley)
Type: in vivo, Apera spica-venti
Details: effective dose for growth reduction of 80 percent, probit analysis

Known GR80, APESV results, listed for orientation:
{"compound": "COC(=O)c1nc(-c2ccc(Cl)c(F)c2OC)cc(N)c1Cl [Compound 20]", "GR80, APESV": ">140 g ai/ha"}
{"compound": "COC(=O)c1nc(-c2ccc(Cl)c(F)c2OC)c(F)c(N)c1Cl [Compound 39]", "GR80, APESV": ">140 g ai/ha"}
{"compound": "Nc1c(F)c(-c2ccc(C(F)(F)F)nc2)nc(C(=O)O)c1Cl [Compound 46]", "GR80, APESV": "78 g ai/ha"}
{"compound": "COC(=O)c1nc(-c2ccc(OC(F)F)nc2)c(F)c(N)c1Cl [Compound 71]", "GR80, APESV": ">140 g ai/ha"}
{"compound": "COC(=O)c1nc(-c2ccc(C3CC3)nc2)c(F)c(N)c1Cl [Compound 49]", "GR80, APESV": "24 g ai/ha"}

Could you report GR80, APESV for every entry in the following list?
1. Nc1c(F)c(-c2ccc(C3CC3)nc2)nc(C(=O)O)c1Cl [Compound 36]
2. COC(=O)c1nc(-c2ccc(C(F)(F)F)nc2)c(F)c(N)c1Cl [Compound 59]
3. Cc1c(-c2cc(N)c(Cl)c(C(=O)O)n2)ccc(Cl)c1F [Compound 52]

Out:
1. 53 g ai/ha
2. 72 g ai/ha
3. 63 g ai/ha

In: Indicate the recorded GR80, APESV value for this compound: Cc1c(-c2ccc(C(F)(F)F)nc2)nc(C(=O)O)c(Cl)c1N [Compound 51]
Out: 139 g ai/ha
